Where do these numbers come from? They come from PubChem BioAssay (NCI).

Test system: NCI/ADR-RES ovarian
Assay: NCI tumour cell line growth inhibition, 48 h
result_type: log10 TGI (log10 of the value in µM)
Recorded TGI (log10, µM)

For orientation, consider the following solved cases.
>>> observed_result("CCCCCCCCCCCCOC1C(C(COC2OC(C(O)CN3CCCCC3)C3OC(C)(C)OC23)NC(=O)Nc2ccccc2)OC2OC(C)(C)OC21 (centres undefined)")
1.52
>>> observed_result("COc1ccc(-n2c3c(c4cc(O)ccc42)C(=O)c2ccccc2C3=O)cc1")
1.40
>>> observed_result("CCn1c(-c2nonc2N)nc2c(C#CC(C)(C)O)nc(O[C@@H](CN)c3ccccc3)cc21")
1.40
>>> observed_result("O=C(c1cc(Br)ccc1O)c1cc(Br)ccc1O")
1.65
>>> observed_result("O=[N+]([O-])/C(Cl)=C(\\Nc1ccccc1)C(Cl)=C(Cl)Cl")
1.59
>>> observed_result("C=C1C(=O)O[C@H]2[C@H]1[C@H](OC(=O)/C(C)=C\\C)C[C@]1(CO1)[C@@H]1[C@H](OC(C)=O)C=C(C)[C@]21O")
1.76
>>> observed_result("CC1(C)CCCCCCCCCC(C)(CCCO)C1=O (centres undefined)")
1.48
>>> observed_result("O=C(NCCN1CCOCC1)Nc1ccc(-c2cc3c(Nc4ccc(Oc5cccc(C(F)(F)F)c5)c(Cl)c4)ncnc3s2)cc1")
1.30

log10 TGI for C=CC[Se]C(=O)Cc1c(C)n(C(=O)c2ccc(Cl)cc2)c2ccc(OC)cc12 ?
0.59

Ok, now CCCC(=O)NC(c1ccc2c(c1)OCO2)c1ccc2cccnc2c1O (centres undefined)
1.22
